organism: Rattus norvegicus; assay: Open TG-GATES - Regimen: Daily Repeat; type: toxicity, organism-based, Sprague-Dawley; design: regimen Daily Repeat, gender Male, age 6 weeks; details: in vivo, po, 0 mg/kg, 72 h, tissue Plasma, route gavage, dose level Control, time 3 day
Entries annotated with measured Ca
Measure: Ca (mg/dL)

[
  {
    "Compound": "COc1ccc2[nH]c([S+]([O-])Cc3ncc(C)c(OC)c3C)nc2c1 (stereo not given)",
    "Test value": 10.7
  },
  {
    "Compound": "CC1=C(/C=C/C(C)=C/C=C/C(C)=C/CO)C(C)(C)CCC1",
    "Test value": 10.9
  },
  {
    "Compound": "CCOC(=O)CCC(=O)O[C@H]1[C@H](O[C@@H]2[C@@H](C)[C@H](O[C@H]3C[C@@](C)(OC)[C@@H](O)[C@H](C)O3)[C@@H](C)C(=O)O[C@H](CC)[C@@](C)(O)[C@H](O)[C@@H](C)C(=O)[C@H](C)C[C@@]2(C)O)O[C@H](C)C[C@@H]1N(C)C [ERYTHROMYCIN ETHYLSUCCINATE]",
    "Test value": 10.1
  },
  {
    "Compound": "CN(C)CCN(Cc1cccs1)c1ccccn1",
    "Test value": 10.9
  },
  {
    "Compound": "CCOc1ccc(NC(=O)CC(C)O)cc1 (stereo not given)",
    "Test value": 11
  },
  {
    "Compound": "CCCNC(=O)NS(=O)(=O)c1ccc(Cl)cc1 [CHLORPROPAMIDE]",
    "Test value": 10.8
  },
  {
    "Compound": "O=C(CCCN1CCC(O)(c2ccc(Cl)cc2)CC1)c1ccc(F)cc1",
    "Test value": 11.2
  },
  {
    "Compound": "NC(N)=Nc1nc(CSCCC(N)=NS(N)(=O)=O)cs1",
    "Test value": 10.7
  },
  {
    "Compound": "COC1=CC(=O)C[C@@H](C)[C@]12Oc1c(Cl)c(OC)cc(OC)c1C2=O",
    "Test value": 10.6
  },
  {
    "Compound": "NNC(=O)c1ccncc1",
    "Test value": 10.8
  }
]
